test system: K4 kissing-loop RNA reporter; experiment: apparent KD of K4 kissing-loop reporter; higher = weaker reporter binding; conditions: Eterna round: R107; input ligand: tryptophan 2.4 mM;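 further: bound reporter read as fluorescence of individual clusters on recovered sequencing chips by microscopy, with normalized cluster intensities fitted with a binding model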
measurementKind: apparent KD of K4 kissing-loop reporter (nM)
# value in nM; strip the unit string

Input: Any idea what apparent KD of K4 kissing-loop reporter was measured for CCUUCCUAAAACGAUACCAGUUUCUAUCCUCAAUCCAGUGAUGUUGAAUUGAGCUCACAGAACCCUUGGCAGCGUCGCUAUACGG [theeternabot_sameState_KL_Theo_B_39] ?
Output: 190

Input: Look up apparent KD of K4 kissing-loop reporter for this sequence: UCCUGCAAUGGACCACGAAAGUGGAUCGAUACCAGAGUCGAAAGACUCCCUUGGCAGCGAGUGAUGUUCGAAGCAGGUAAAUAAA [#SwitchBubble 21 #K4Late]
Output: 358

Input: Recorded apparent KD of K4 kissing-loop reporter for UGAUGUUUAGGUCACCCAGUGAUGUUGGAAGGAGCGUGCGAAAGCACAGGUAGGUCGCCAACCUAAAAGUGACCUGAGCAUCUAA [#SwitchBubble 8 #K4Early] , please?
Output: 846

Input: I'd like to know its apparent KD of K4 kissing-loop reporter. The sequence in question is CGCGCUGCCUGAGGAUAUAGAAACGAGUGAUGUUCGUGGACAAGAGCCAGUGAUGUUGGGUUAUUUCUAGAAGGCAGGCGAUCGU [Exclusion FMN B GF5]
Output: 97.5

Input: Looking for the measured apparent KD of K4 kissing-loop reporter of UUCUACGAGUGAUGUUCGUAGUGUAUUCGCUAGGAUAUCGUUUUUUCGAGAAGGAGUGAUGAAGUGAUACGAAAGUAUCGCUUCU [FMN A 14] , can you help?
Output: 292

Input: Return reported apparent KD of K4 kissing-loop reporter; argument: `GCCCGAAAGGGCCGAUGUGUUUGCGGCGAUCGAGGACCGGUACGGCCGCCACUCGUCGAGGCGUUCAGUGAUGUUGAAAGCAUUA`
Output: 626

* * *

tested on: MS2 coat protein; experiment: apparent KD of MS2 coat protein, switch ON state; designed switch direction (-1 OFF switch, 1 ON switch): -1; higher = weaker reporter binding; settings: FMN input: 0 or 200 uM; Eterna round: R93 (includes R88 designs)
measurementKind: apparent KD of MS2 coat protein (nM)
Only the number, expressed in nM, is required.

Input: What does the data say about its apparent KD of MS2 coat protein? Entry: GUCGUGUGAGGAUAUGGAAAGUAGAAGUGGCGGUCGAAAACCUAGAAGGCACAUGAGGAUCACCCAUGUAAGAG [JR_Exc004_Sub1708]
Output: 57

Input: Find the recorded apparent KD of MS2 coat protein belonging to AAAAAACAUGAGGAUCACCCAUGUGAGGAUAUCGGUAGUGAGGCUAUAGUGUCAGUAAUGAGAAGGCACAUAAA [Brourd 613 Mod 11 - Jieux - Exclusion 1] and report it.
Output: 24.6

Input: Any idea what its apparent KD of MS2 coat protein is? The sequence is AAUAUCGGAGGAUAUGCAUAGAUAAAGAACCAUGUUAAAACACAUGAGGAUCACCCAUGUAGAAGGCCGAUAAA [AJ 9]
Output: 54.1

Input: Suppose we examine the sequence UCCGAACAUGAGGAUCACCCAUGUCAGGAUAUACACCCAGCAUGGAAGCCAUGCUCAAGUAGAAGGGACGGGUG [Inxeus] ; what apparent KD of MS2 coat protein value has been reported?
Output: 34.9

Input: Give the measured apparent KD of MS2 coat protein of AAAAAUGGAGGAUAUACAUGAGGAUCACCCAUGUGUAACUAUACUAAGCACAAAAAAAGUAGAAGGCCAAAAAA [Gilly Gone Silly 9 - Jieux - Exclusion 3] .
Output: 53.5

Input: apparent KD of MS2 coat protein for AAGGGACAUGAGGAUCACCCAUGUGAGGAUAUGACGUAAAGAAAGAAAGAAGAAAUCGUCAGAAGGCACACCAA [Mat - Exclusion 1 - Eli mod - D70] ?
Output: 70.6

Input: Please give the measured apparent KD of MS2 coat protein for this sequence: AAAAAACAUGAGGAUCACCCAUGUUAGGAUAUGCUAUGGAAAAUAAAAAUAAAACAUAGCAGAAGGAACAAAAA [Denovo 2]
Output: 18.6

Input: Given the sequence AACAGUACAGGAUAUACAUGAGGAUCACCCAUGUGAAAAGAAAGUGGCGUACCACAAAGUAGAAGGGUACUGGA [Mat - Exclusion 3 - JL mod - D24] , what is its reported apparent KD of MS2 coat protein?
Output: 27.5

Input: Suppose we examine the sequence AAGAAACAUGAGGAUCACCCAUGUGAGGAUAUCUAAAAGAAAAGAAAAGAAAGAAGAAAGAGAAGGCACAAAGG [Setut] ; what apparent KD of MS2 coat protein value has been reported?
Output: 34.7

Input: Quick check: apparent KD of MS2 coat protein of AAAAAGGGAGGAUAUACAUGAGGAUCACCCAUGUAAAAAAUCGCGGGAGGGAGGGAAGGUAGAAGGCCCAAAAA [Excls3-V] ?
Output: 20.1

Input: What value of apparent KD of MS2 coat protein has been reported for the following sequence? GAAUGAUGAGGAUAUACAUGAGGAUCACCCAUGUGUAAAAAUAAAUACACAAAAGAAAGUAGAAGGCAUCAAAG [Mat - Exclusion 3 - Mayanna mod - D120]
Output: 22.9

Input: I am curious: what apparent KD of MS2 coat protein value has been reported for AUAAAGCGAGGAUAUACAUGAGGAUCACCCAUGUAAAUAAAUAGGAGAGCCACAAUAAGUAGAAGGUGCAAUAA [JR_Exc003_Sub008] ?
Output: 54.8

Input: // returns reported apparent KD of MS2 coat protein for input CAAAACAAAGGAUAUAAAACAGAGGAUAUACAUAAAUAAAAACAUGAGGAUCACCCAUGUAGAAGGCUGAAAAC [Meechl Ex2 R2 m3]
Output: 21.9

Input: Looking for the measured apparent KD of MS2 coat protein of AAAAAGUAAGGAUAUCUGGAUAGGAAAAAGAAAACCUAUCCAGAGAAGGUACAUGAGGAUCACCCAUGUAAAAA [Opal 30] , can you help?
Output: 20.8

Input: What measured apparent KD of MS2 coat protein goes with CUCAAGUAAGGAUAUGCAAGAAAAGAAAAGAAAGAAAAGAAGCAGAAGGUACAUGAGGAUCACCCAUGUAAGAA [EteRNA is fun!] ?
Output: 25.4

Input: Given the entry AACAGUACAGGAUAUACAUGAGGAUCACCCAUGUGAGAAAUAAGUGGCGUACCACAAAGUAGAAGGGUACUGGA [Mat - Exclusion 3 - JL mod - D21] , report its measured apparent KD of MS2 coat protein.
Output: 32.6

Input: So what does the record say about apparent KD of MS2 coat protein for AAAAAACAUGAGGAUCACCCAUGUGAGGAUAUGAACGAAAAUAAAUAAAAAUAAAAGUUCAGAAGGCACAAAAA [66%, Wbt, 10] ?
Output: 42.2

Input: Need apparent KD of MS2 coat protein, item CCCAUGUCAGGAUAUCAGUAGUAAAAAAAAAAAAUUACUACUGAGAAGGGACAUGAGGAUCACCCAUGUACCUU [EX4 319: Super Stable 19]
Output: 72.1

Input: // returns reported apparent KD of MS2 coat protein for input AGAAUACAUGAGGAUCACCCAUGUGAGGAUAUGUAGAUAAAAAUAAAAUAAAAUAAAUACAGAAGGCGCAAAAG [EX 1 May 20]
Output: 44.5

Input: Would you kindly share the measured apparent KD of MS2 coat protein for AGGAAACAUGAGGAUCACCCAUGUGAGGAUAUUGGAAAGAAAAGAAAAGAAAGAAGAAUAAGAAGGCACAAGAA [Merneith] ?
Output: 21.8

Input: I'd like to know its apparent KD of MS2 coat protein. The sequence in question is GCUGUCGUAGGAUAUACAUGAGGAUCACCCAUGUGAGAGAAAAAAGUGAGAAAGAAAAGUAGAAGGACGGUAGG [salish99-ex3-105]
Output: 37.5

Input: Fill in: apparent KD of MS2 coat protein of GAAAAGUGAGGAUAUUCGGAAGGGAAAGCGCAAACCCAACCGAAGAAGGCACAUGAGGAUCACCCAUGUGGAAG [Mat - Exaclusion 4 - Eli mod - D58] is ___
Output: 23.6

Input: # input sequence: ACCUUACAUGAGGAUCACCCAUGUUAGGAUAUCUCGCUCUCGCAGUCACAGCGCAAGCAGAGAAGGGACACGGG [Maretien] ; wanted: its apparent KD of MS2 coat protein
Output: 32.6

Input: Fill in: apparent KD of MS2 coat protein of AAAAAACAUGAGGAUCACCCAUGUCAGGAUAUCUGUAUUCAAUCCUCGGAUUGAAUACAGAGAAGGGAUAUGAA [Ex1: 604] is ___
Output: 42.2

Input: apparent KD of MS2 coat protein lookup needed for AUAGGCCUAGGAUAUACAUGAGGAUCACCCAUGUUAAUAAUUCAAACAUGAUAAACGUGUAGAAGGAGGAAUAA [JR_Exc003_Sub302] , thanks.
Output: 40.8

Entry source: the supplement of paper PMC9170038
